experimental system: recombinant soluble homotrimeric HA of A/Indonesia/5/05 (H5N1) (Influenza A virus A/Indonesia/5/2005(H5N1))
test protocol: trimeric HA microarray, transfection supernatant set 5
measurement parameters: remark: other sources report otherwise
Some binders, each annotated with its measured Trimeric HA Binding: RLU.
endpoint: Trimeric HA Binding: RLU (RLU)

binder | quantitative result
TCN-542 (5079_A16) (antibody, V domains shown) VH: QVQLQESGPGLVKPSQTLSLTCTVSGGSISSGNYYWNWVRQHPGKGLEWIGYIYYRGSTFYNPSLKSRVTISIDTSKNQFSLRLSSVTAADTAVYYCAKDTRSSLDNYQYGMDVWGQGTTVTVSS VL: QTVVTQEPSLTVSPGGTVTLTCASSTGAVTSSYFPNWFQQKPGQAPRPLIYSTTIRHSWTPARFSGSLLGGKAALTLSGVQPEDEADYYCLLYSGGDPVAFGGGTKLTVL | 1760
TCN-543 (5081_G23) (antibody, V domains shown) VH: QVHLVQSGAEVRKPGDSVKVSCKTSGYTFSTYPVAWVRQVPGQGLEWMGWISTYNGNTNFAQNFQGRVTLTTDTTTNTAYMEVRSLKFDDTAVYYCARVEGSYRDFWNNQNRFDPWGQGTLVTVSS VL: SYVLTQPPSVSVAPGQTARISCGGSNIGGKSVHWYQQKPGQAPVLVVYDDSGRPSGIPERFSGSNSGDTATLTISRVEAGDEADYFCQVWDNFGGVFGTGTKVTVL | 1830
TCN-540 (5060_F05) (antibody, V domains shown) VH: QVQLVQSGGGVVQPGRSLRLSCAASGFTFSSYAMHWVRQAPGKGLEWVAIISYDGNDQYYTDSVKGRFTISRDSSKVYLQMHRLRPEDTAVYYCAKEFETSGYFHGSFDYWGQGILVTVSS VL: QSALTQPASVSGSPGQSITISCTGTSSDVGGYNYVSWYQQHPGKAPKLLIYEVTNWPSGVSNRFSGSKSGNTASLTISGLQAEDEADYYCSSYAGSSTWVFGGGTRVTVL | 2570
